Please go through the items and note down their pest or weed control at 320 g/ha.
# Test system: Pharbitis purpurea (PHBPU)
# RUN_DESCRIPTION: Post-emergence herbicidal action, greenhouse pot trial
# Format: in vivo
# PARTICULARS: Ipomoea purpurea, 504 h, 320 g/ha, visual rating after about 3 weeks, read-out: Post-emergence effect at 320 g/ha against PHBPU in %
Give bare numbers, in %.

These solved cases illustrate the format of a correct answer.
>  <COMPOUND>
CSC(Oc1nn(-c2ncccc2F)c(-c2ccc(F)nc2)c1Br)C(=O)O (centres unmarked) [Example I-34]

>  <TARGET>
Pharbitis purpurea (PHBPU)

>  <QUANTITY_NAME>
pest or weed control at 320 g/ha

>  <REPORTED_VALUE>
90

$$$$
>  <COMPOUND>
COC(=O)C(Oc1nn(-c2ncccc2F)c(-c2cncc(F)c2)c1C1CC1)SC (centres unmarked)

>  <TARGET>
Pharbitis purpurea (PHBPU)

>  <QUANTITY_NAME>
pest or weed control at 320 g/ha

>  <REPORTED_VALUE>
90

$$$$
>  <COMPOUND>
CCOC(=O)C(Oc1nn(-c2cnccn2)c(-c2ccc(F)nc2)c1Br)SC (centres unmarked)

>  <TARGET>
Pharbitis purpurea (PHBPU)

>  <QUANTITY_NAME>
pest or weed control at 320 g/ha

>  <REPORTED_VALUE>
80

$$$$
>  <COMPOUND>
CCOC(=O)C(Oc1nn(-c2ccccc2F)c(-c2ccc(F)nc2)c1Br)SC (single isomer, unassigned) [Example I-30]

>  <TARGET>
Pharbitis purpurea (PHBPU)

>  <QUANTITY_NAME>
pest or weed control at 320 g/ha

>  <REPORTED_VALUE>
80

$$$$

Please go through the list and note pest or weed control at 320 g/ha for each compound.
1. CCOC(=O)C(Oc1nn(-c2ncccc2F)c(-c2ccc(F)nc2)c1I)SC (centres unmarked)
2. CSC(Oc1nn(-c2cnccn2)c(-c2ccc(F)nc2)c1Cl)C(=O)O (centres unmarked)
3. CCOC(=O)C(Oc1nn(-c2ncccc2F)c(-c2ccc(F)nc2)c1Br)SC (single isomer, unassigned) [Example I-28]
4. COC(=O)C(Oc1nn(-c2ncccc2F)c(-c2ccc(F)nc2)c1Cl)SC (centres unmarked)

1: 90; 2: 90; 3: 90; 4: 90
